# Tested on: Staphylococcus aureus
# measurementNotes: Antibacterial activity against Staphylococcus aureus ATCC 29213 after 18 hrs by twofold serial agar dilution technique
# Type: functional
# conditionNotes: ATCC 29213, 18 h
Each entry below carries its reported MIC.
Record the value in µg/mL, omitting the unit from your answer.

Example results:
smilesStr	studySystem	MIC (µg/mL)
CC[C@@H](C(=O)[C@@H](C)[C@@H](O)[C@H](C)[C@@H]1O[C@@H]([C@@H](CC)C(=O)Nc2ccccc2)CC[C@@H]1C)[C@H]1O[C@]2(C=C[C@@H](O)[C@]3(CC[C@@](C)([C@H]4CC[C@](O)(CC)[C@H](C)O4)O3)O2)[C@H](C)C[C@@H]1C	Staphylococcus aureus	2
CC[C@@H](C(=O)[C@@H](C)[C@@H](O)[C@H](C)[C@@H]1O[C@@H]([C@@H](CC)C(=O)O)CC[C@@H]1C)[C@H]1O[C@]2(C=C[C@@H](O)[C@]3(CC[C@@](C)([C@H]4CC[C@](O)(CC)[C@H](C)O4)O3)O2)[C@H](C)C[C@@H]1C	Staphylococcus aureus	2

Here's the next entry for you.
Input line: Provide the documented MIC with Staphylococcus aureus as the system for `CC[C@@H](C(=O)[C@@H](C)[C@@H](O)[C@H](C)[C@@H]1O[C@@H]([C@@H](CC)C(=O)NCCCN2CCCCC2)CC[C@@H]1C)[C@H]1O[C@]2(C=C[C@@H](O)[C@]3(CC[C@@](C)([C@H]4CC[C@](O)(CC)[C@H](C)O4)O3)O2)[C@H](C)C[C@@H]1C`
Output line: 128

====

# Test system: Staphylococcus aureus
# measurementNotes: Antibacterial activity against hospital-acquired methicillin-resistant Staphylococcus aureus 399/10 after 18 hrs by twofold serial agar dilution technique
# Assay type: functional
# conditionNotes: 399/10, 18 h
Each entry below carries its reported MIC.
Answer with the number, then the unit.

Example results:
smilesStr	MIC
CC[C@@]1([C@@H]2O[C@@H]([C@H]3O[C@@](O)(CO)[C@H](C)C[C@@H]3C)C[C@@H]2C)CC[C@H]([C@]2(C)CC[C@]3(C[C@H](O)[C@@H](C)[C@@H]([C@@H](C)[C@@H](OC)[C@H](C)C(=O)O)O3)O2)O1	2 µg/mL
CC[C@@H](C(=O)[C@@H](C)[C@@H](O)[C@H](C)[C@@H]1O[C@@H]([C@@H](CC)C(=O)Nc2ccccc2)CC[C@@H]1C)[C@H]1O[C@]2(C=C[C@@H](O)[C@]3(CC[C@@](C)([C@H]4CC[C@](O)(CC)[C@H](C)O4)O3)O2)[C@H](C)C[C@@H]1C	4 µg/mL
CC[C@@H](C(=O)[C@@H](C)[C@@H](O)[C@H](C)[C@@H]1O[C@@H]([C@@H](CC)C(=O)O)CC[C@@H]1C)[C@H]1O[C@]2(C=C[C@@H](O)[C@]3(CC[C@@](C)([C@H]4CC[C@](O)(CC)[C@H](C)O4)O3)O2)[C@H](C)C[C@@H]1C	1 µg/mL

Here's the next entry for you.
Input line: What value of measured MIC is listed for `CC[C@@H](C(=O)[C@@H](C)[C@@H](O)[C@H](C)[C@@H]1O[C@@H]([C@@H](CC)C(=O)NCCCN2CCCCC2)CC[C@@H]1C)[C@H]1O[C@]2(C=C[C@@H](O)[C@]3(CC[C@@](C)([C@H]4CC[C@](O)(CC)[C@H](C)O4)O3)O2)[C@H](C)C[C@@H]1C` ?
Output line: 64 µg/mL

====

# Test system: Pseudomonas aeruginosa
# measurementNotes: Antibacterial activity against Pseudomonas aeruginosa ATCC 15442 after 18 hrs by twofold serial agar dilution technique
# Assay type: functional
# conditionNotes: ATCC 15442, 18 h
reportedProperty: MIC

Example results:
compound	reportedProperty	observedResult
C=CCNC(=O)[C@H](CC)[C@H]1CC[C@H](C)[C@H]([C@@H](C)[C@H](O)[C@H](C)C(=O)[C@H](CC)[C@H]2O[C@]3(C=C[C@@H](O)[C@]4(CC[C@@](C)([C@H]5CC[C@](O)(CC)[C@H](C)O5)O4)O3)[C@H](C)C[C@@H]2C)O1 [SALINOMYCIN ALLYL AMIDE]	MIC	≥ 256 µg/mL
CC[C@@H](C(=O)[C@@H](C)[C@@H](O)[C@H](C)[C@@H]1O[C@@H]([C@@H](CC)C(=O)NCCc2c[nH]c3ccccc23)CC[C@@H]1C)[C@H]1O[C@]2(C=C[C@@H](O)[C@]3(CC[C@@](C)([C@H]4CC[C@](O)(CC)[C@H](C)O4)O3)O2)[C@H](C)C[C@@H]1C	MIC	≥ 256 µg/mL

Input line: What value of measured MIC is listed for `CC[C@@H](C(=O)[C@@H](C)[C@@H](O)[C@H](C)[C@@H]1O[C@@H]([C@@H](CC)C(=O)NCCOCCOCCOC)CC[C@@H]1C)[C@H]1O[C@]2(C=C[C@@H](O)[C@]3(CC[C@@](C)([C@H]4CC[C@](O)(CC)[C@H](C)O4)O3)O2)[C@H](C)C[C@@H]1C` ?
Output line: ≥ 256 µg/mL

====

Each entry below carries its reported MIC.
# Tested on: Bordetella bronchiseptica
# measurementNotes: Antibacterial activity against Bordetella bronchiseptica ATCC 4617 after 18 hrs by twofold serial agar dilution technique
# Type: functional
# conditionNotes: ATCC 4617, 18 h

Example results:
molecule	reportedProperty	observedResult
CC[C@@H](C(=O)[C@@H](C)[C@@H](O)[C@H](C)[C@@H]1O[C@@H]([C@@H](CC)C(=O)NCCc2c[nH]c3ccccc23)CC[C@@H]1C)[C@H]1O[C@]2(C=C[C@@H](O)[C@]3(CC[C@@](C)([C@H]4CC[C@](O)(CC)[C@H](C)O4)O3)O2)[C@H](C)C[C@@H]1C	MIC	≥ 256 µg/mL
CCCCNC(=O)[C@H](CC)[C@H]1CC[C@H](C)[C@H]([C@@H](C)[C@H](O)[C@H](C)C(=O)[C@H](CC)[C@H]2O[C@]3(C=C[C@@H](O)[C@]4(CC[C@@](C)([C@H]5CC[C@](O)(CC)[C@H](C)O5)O4)O3)[C@H](C)C[C@@H]2C)O1	MIC	≥ 256 µg/mL
CC[C@@H](C(=O)[C@@H](C)[C@@H](O)[C@H](C)[C@@H]1O[C@@H]([C@@H](CC)C(=O)NCCOCCOCCOC)CC[C@@H]1C)[C@H]1O[C@]2(C=C[C@@H](O)[C@]3(CC[C@@](C)([C@H]4CC[C@](O)(CC)[C@H](C)O4)O3)O2)[C@H](C)C[C@@H]1C	MIC	≥ 256 µg/mL
C=CCNC(=O)[C@H](CC)[C@H]1CC[C@H](C)[C@H]([C@@H](C)[C@H](O)[C@H](C)C(=O)[C@H](CC)[C@H]2O[C@]3(C=C[C@@H](O)[C@]4(CC[C@@](C)([C@H]5CC[C@](O)(CC)[C@H](C)O5)O4)O3)[C@H](C)C[C@@H]2C)O1 [SALINOMYCIN ALLYL AMIDE]	MIC	≥ 256 µg/mL

Here's the next entry for you.
Input line: What value of measured MIC is listed for `CC[C@@H](C(=O)[C@@H](C)[C@@H](O)[C@H](C)[C@@H]1O[C@@H]([C@@H](CC)C(=O)NCc2ccccc2)CC[C@@H]1C)[C@H]1O[C@]2(C=C[C@@H](O)[C@]3(CC[C@@](C)([C@H]4CC[C@](O)(CC)[C@H](C)O4)O3)O2)[C@H](C)C[C@@H]1C` ?
Output line: ≥ 256 µg/mL

====

# Test system: Staphylococcus aureus
# measurementNotes: Antibacterial activity against Staphylococcus aureus ATCC 6538 after 18 hrs by twofold serial agar dilution technique
# Assay type: functional
# conditionNotes: ATCC 6538, 18 h
reportedProperty: MIC

Example results:
molecule	MIC
CC[C@@H](C(=O)[C@@H](C)[C@@H](O)[C@H](C)[C@@H]1O[C@@H]([C@@H](CC)C(=O)NCCOCCOCCOC)CC[C@@H]1C)[C@H]1O[C@]2(C=C[C@@H](O)[C@]3(CC[C@@](C)([C@H]4CC[C@](O)(CC)[C@H](C)O4)O3)O2)[C@H](C)C[C@@H]1C	≥ 256 µg/mL
C=CCNC(=O)[C@H](CC)[C@H]1CC[C@H](C)[C@H]([C@@H](C)[C@H](O)[C@H](C)C(=O)[C@H](CC)[C@H]2O[C@]3(C=C[C@@H](O)[C@]4(CC[C@@](C)([C@H]5CC[C@](O)(CC)[C@H](C)O5)O4)O3)[C@H](C)C[C@@H]2C)O1 [SALINOMYCIN ALLYL AMIDE]	≥ 256 µg/mL
CC[C@@H](C(=O)[C@@H](C)[C@@H](O)[C@H](C)[C@@H]1O[C@@H]([C@@H](CC)C(=O)NCCc2c[nH]c3ccccc23)CC[C@@H]1C)[C@H]1O[C@]2(C=C[C@@H](O)[C@]3(CC[C@@](C)([C@H]4CC[C@](O)(CC)[C@H](C)O4)O3)O2)[C@H](C)C[C@@H]1C	≥ 256 µg/mL
CC[C@@H](C(=O)[C@@H](C)[C@@H](O)[C@H](C)[C@@H]1O[C@@H]([C@@H](CC)C(=O)NCc2ccccc2)CC[C@@H]1C)[C@H]1O[C@]2(C=C[C@@H](O)[C@]3(CC[C@@](C)([C@H]4CC[C@](O)(CC)[C@H](C)O4)O3)O2)[C@H](C)C[C@@H]1C	≥ 256 µg/mL
CC[C@@H](C(=O)[C@@H](C)[C@@H](O)[C@H](C)[C@@H]1O[C@@H]([C@@H](CC)C(=O)Nc2ccccc2)CC[C@@H]1C)[C@H]1O[C@]2(C=C[C@@H](O)[C@]3(CC[C@@](C)([C@H]4CC[C@](O)(CC)[C@H](C)O4)O3)O2)[C@H](C)C[C@@H]1C	2 µg/mL

Input line: What value of measured MIC is listed for `CC[C@@H](C(=O)[C@@H](C)[C@@H](O)[C@H](C)[C@@H]1O[C@@H]([C@@H](CC)C(=O)NCCCN2CCCCC2)CC[C@@H]1C)[C@H]1O[C@]2(C=C[C@@H](O)[C@]3(CC[C@@](C)([C@H]4CC[C@](O)(CC)[C@H](C)O4)O3)O2)[C@H](C)C[C@@H]1C` ?
Output line: 128 µg/mL

Input line: What about `CC[C@@H](C(=O)[C@@H](C)[C@@H](O)[C@H](C)[C@@H]1O[C@@H]([C@@H](CC)C(=O)O)CC[C@@H]1C)[C@H]1O[C@]2(C=C[C@@H](O)[C@]3(CC[C@@](C)([C@H]4CC[C@](O)(CC)[C@H](C)O4)O3)O2)[C@H](C)C[C@@H]1C` ?
Output line: 2 µg/mL

Input line: What about `CCCCNC(=O)[C@H](CC)[C@H]1CC[C@H](C)[C@H]([C@@H](C)[C@H](O)[C@H](C)C(=O)[C@H](CC)[C@H]2O[C@]3(C=C[C@@H](O)[C@]4(CC[C@@](C)([C@H]5CC[C@](O)(CC)[C@H](C)O5)O4)O3)[C@H](C)C[C@@H]2C)O1` ?
Output line: ≥ 256 µg/mL
